Every entry's value here was drawn from paper PMC9959676.

System: thoracic aorta segments
Test: Inhibition of phenylephrine-induced contraction on isolated aorta rings
Design: species or system male Wistar rats
Conditions: Rattus norvegicus; compounds 10^−4 M in organ bath, phenylephrine 10^−6 M, n = 5; read-out: %ge inh. of Phenylephrine Cont. (±SEM)
property: inhibition at 100 µM (%)
Numbers only, in %.

Batch request: inhibition at 100 µM per item, same order as input.
1. CCCCC(=O)N(Cc1ccc(-c2ccccc2-c2nn[nH]n2)cc1)C(C(=O)O)C(C)C (stereo not shown) [AV0, reference compound]
2. CCCCC(=O)N(Cc1ccc(-c2ccccc2-c2nn[nH]n2)cc1)C(C(=O)Oc1ccccc1C(=O)O)C(C)C (stereo not shown)
3. CCCCC(=O)N(Cc1ccc(-c2ccccc2-c2nnn[nH]2)cc1)C(C(=O)Oc1ccc(N)cc1)C(C)C (stereo not shown)

1: 65.3; 2: 70.8; 3: 69.4

Query (molecule): CCCCC(=O)N(Cc1ccc(-c2ccccc2-c2nn[nH]n2)cc1)C(C(=O)Oc1ccc(CC(N)C(=O)O)cc1)C(C)C (stereo not shown) ; field requested: inhibition at 100 µM
62.4
